Test system: HCT116 p53-/- cells
EXPERIMENT DESCRIPTION: Resazurin reduction cytotoxicity assay
Type: cell-based
EXPERIMENTAL SETUP: IC50 in HCT116 (p53-/-) divided by IC50 in HCT116 (p53+/+)
OBSERVED PROPERTY: Degree of resistance

Q: I have this compound here, `C=C(C)[C@@H]1CC[C@]2(C(=O)O)CC[C@]3(C)[C@H](CC[C@@H]4[C@@]5(C)CC[C@H](O)C(C)(C)[C@@H]5CC[C@]43C)[C@@H]12` , and I need its recorded Degree of resistance.
Result: 0.54

Q: I have this compound here, `O=c1cc(-c2ccc(O)cc2)oc2ccc(O)cc12` , and I need its recorded Degree of resistance.
Result: 1.00

Q: I have this compound here, COc1cccc2c1C(=O)c1c(O)c3c(c(O)c1C2=O)C[C@@](O)(C(=O)CO)C[C@@H]3O[C@H]1C[C@H](N)[C@H](O)[C@H](C)O1 [Doxorubicin, doxorubicin, reference compound] , and I need its recorded Degree of resistance.
Result: 3.73

Q: I have this compound here, `O=c1cc(-c2ccc(O)cc2)oc2cc(O)ccc12` , and I need its recorded Degree of resistance.
Result: < 0.66

The reported numbers originate from paper PMC6644236.
